ASSAYED_TARGET: mGFP-K-RASG12V (Homo sapiens (Human), UniProt P01116, G12V)
PROTOCOL_DESCRIPTION: K-Ras mislocalization assay (confocal microscopy, Manders coefficient)
Format: cell-based
CONDITION_SUMMARY: MDCK cells, 48 h treatment; read-out: IC50 (μM), KRASG12V mislocalization
Method: Madine Darby Canine Kidney epithelial cells (MDCK) stably co-expressing mGFP-tagged full length oncogenic mutant K-Ras (GFP—K-RASG12V) or mGFP-LactC2 (peptide probe for phosphatidylserine) and mCherry-tagged to the amino acids 179-189 of H-RasC181S, C184S (mCherry-CAAX, localizes primarily to endomembranes) were grown in DMEM-high glucose/sodium pyruvate/10% FBS. […]
For each record, write down the corresponding IC50.
One number for each entry, in µM.

Count: 2. Required value per item: IC50.
1. C[C@H](c1ccc(F)cc1)N(CC=C(c1ccccc1)c1ccccc1)CCn1cc(CO)nn1
2. C(CN(CCN1CCCC1)Cc1cc2cccnc2[nH]1)=C(c1ccccc1)c1ccccc1

Outgoing:
1: 2.77; 2: 3.37

Count: 6. Required value per item: IC50.
1. COc1ccc(CCN(CC=C(c2ccccc2)c2ccccc2)CC=C(c2ccccc2)c2ccccc2)cc1
2. C(CN1CCCc2ccccc21)=C(c1ccccc1)c1ccccc1
3. COc1ccc([C@@H](C)N(C/C=C/c2ccccc2)CCN2CCN(C)CC2)cc1
4. COc1ccc([C@@H](C)N(C)CC=C(c2ccccc2)c2ccccc2)cc1
5. C(CN1CCc2ccccc2C1)=C(c1ccccc1)c1ccccc1
6. C=CC(=O)N(CC=C(c1ccccc1)c1ccccc1)[C@H](C)c1ccc(OC)cc1

Outgoing:
1: 3.65; 2: 12.2; 3: 14.8; 4: 3.3; 5: 0.65; 6: 1.21

Incoming: Provide measured IC50 value, entry: "C[C@@H](CNCC=C(c1ccccc1)c1ccccc1)c1ccccc1"
Outgoing: 16.9

====

Test system: MDCK cells co-expressing GFP-K-RASG12V and mCherry-CAAX
PROTOCOL_DESCRIPTION: Cytotoxicity in mislocalization screen (death of all cells in well)
CONDITION_SUMMARY: drug caused death of all cells in well at 30 μM
READOUT_TYPE: Cytotoxic at 30 μM

Consider the reported Cytotoxic at 30 μM for these compounds:
# STRUCTURE_AS_SMILES, ASSAY_VALUE
rows = [
    ("C[C@@H](NCCN1c2ccccc2Sc2ccccc21)c1ccccc1", "No"),
    ("C[C@H](c1ccc(F)cc1)N(CC=C(c1ccccc1)c1ccccc1)CCn1cc(CO)nn1", "No"),
    ("COc1ccc([C@@H](C)N(CC=C(c2ccccc2)c2ccccc2)CCCN2CCN(C)CC2)cc1", "Yes"),
    ("COC(=O)[C@@H](c1ccccc1)N(CC=C(c1ccccc1)c1ccccc1)CC=C(c1ccccc1)c1ccccc1", "Yes"),
    ("CCCN1CCN(CCN(CC=C(c2ccccc2)c2ccccc2)[C@H](C)c2ccc(OC)cc2)CC1", "Yes"),
]

Incoming: Provide measured Cytotoxic at 30 μM value, entry: "C(CN1CCC(c2ccccc2)CC1)=C(c1ccccc1)c1ccccc1"
Outgoing: No

====

For each record, write down the corresponding Emax.
ASSAYED_TARGET: mGFP-K-RASG12V (Homo sapiens (Human), UniProt P01116, G12V)
PROTOCOL_DESCRIPTION: K-Ras mislocalization assay (confocal microscopy, Manders coefficient)
Format: cell-based
Parameters: key: Manders coefficient: fraction of mCherry-CAAX co-localizing with GFP-K-Ras
CONDITION_SUMMARY: maximal effect, Manders coefficient; MDCK cells, 48 h
Give bare numbers.

# COMPOUND, READOUT_TYPE, ASSAY_VALUE
measured = [
    ("C[C@H](c1ccc(Cl)cc1)N(CC=C(c1ccccc1)c1ccccc1)CCN1CCN(C)CC1 [NY0518]", "Emax", 0.695),
    ("COc1ccc([C@@H](C)N(CC=C(c2ccccc2)c2ccccc2)CCCC=O)cc1 [NY0445]", "Emax", 0.694),
    ("COc1ccc([C@@H](C)N(CC=C(c2ccccc2)c2ccccc2)CCF)cc1 [NY315]", "Emax", 0.52),
]

Count: 3. Required value per item: Emax.
1. COc1ccc([C@@H](C)N(CC=C(c2ccccc2)c2ccccc2)CCN2CCOCC2)cc1 [NY316]
2. COc1ccc([C@@H](C)N(CC=C(c2ccccc2)c2ccccc2)C(=O)Oc2ccccc2)cc1 [NY0225]
3. C(CN(CC=C(c1ccccc1)c1ccccc1)C1(c2ccccc2)CC1)=C(c1ccccc1)c1ccccc1 [NY040401]

Outgoing:
[0.86, 0.626, 0.778]
